system: Saccharomyces cerevisiae; assay: protein stability index of tFT-peptide fusion in wild type (PSI (0-1 scale)); higher = more stable (slower turnover); details: genetic background: wild type;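 also: PSI derived as read-weighted mean over the 8 sorting bins, only variants exceeding 10 total reads kept, mCherry placed adjacent to the peptide and sfGFP distal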
Could you please report measured protein stability index for the items listed next?
# output: bare number, no unit

Query `RSLRVLLPVYFR` yields protein stability index of 0.278

Query `LVVYLSCVACIG` yields protein stability index of 0.0178

Query `IITLPMCPLLLR` yields protein stability index of 0.324

Query `PSLFASFWRVVG` yields protein stability index of 0.109

Query `PVTRLDAIYFRI` yields protein stability index of 0.425

Query `PSLPASFWRVVG` yields protein stability index of 0.197

Query `PSLAASFWRVVP` yields protein stability index of 0.539

Query `RVTRLDAIYQRI` yields protein stability index of 0.664

Query `CLVSLPILLFER` yields protein stability index of 0.569

Query `LKILRQKMQHQN` yields protein stability index of 0.238

Query `RSLLVLLPLYFR` yields protein stability index of 0.344
